- METHOD SUMMARY: Cytotoxicity assay in MT-4 cells
- Assay type: cell-based
- TEST CONDITIONS: human; uninfected MT-4 cells, 5 days incubation, Cell Titer Glo; read-out: MT4 CC50
METRIC: CC50 at 5 days

Past entries and their recorded results:
COC[C@H](C)OC(=O)OCOc1c2n(cc(C(=O)NCc3ccc(F)cc3F)c1=O)[C@@H]1CN(C2=O)[C@@H](C)CC[C@]12CC(C)=NO2
≥ 50 µM
CCCCCC(=O)OCOc1c2n(cc(C(=O)NCc3ccc(F)cc3F)c1=O)[C@@H]1CN(C2=O)[C@@H](C)CC[C@]12CC(C)=NO2
21.5 µM
COC(=O)N[C@H](C(=O)Oc1c2n(cc(C(=O)NCc3ccc(F)cc3F)c1=O)[C@@H]1CN(C2=O)[C@@H](C)CC[C@]12CC(C)=NO2)C(C)C
18.1 µM
CCCCCCCCCCCCCCOC(=O)OCOc1c2n(cc(C(=O)NCc3ccc(F)cc3F)c1=O)[C@@H]1CN(C2=O)[C@@H](C)CC[C@]12CC(OC)=NO2
≥ 50 µM

The record that follows has no CC50 at 5 days shown yet.
Prompt: Report CC50 at 5 days for CCCCCCCCCCCCCCCC(=O)OCOc1c2n(cc(C(=O)NCc3ccc(F)cc3F)c1=O)[C@@H]1CN(C2=O)[C@@H](C)CC[C@]12CC(C)=NO2
Completion: ≥ 50 µM
